Test: self-splicing fitness, log relative to wild type (ln ratio); higher = more splicing; Tetrahymena group I intron in knt gene, E. coli kanamycin selection, DiMSum; sequences stand for … in CUCUCU…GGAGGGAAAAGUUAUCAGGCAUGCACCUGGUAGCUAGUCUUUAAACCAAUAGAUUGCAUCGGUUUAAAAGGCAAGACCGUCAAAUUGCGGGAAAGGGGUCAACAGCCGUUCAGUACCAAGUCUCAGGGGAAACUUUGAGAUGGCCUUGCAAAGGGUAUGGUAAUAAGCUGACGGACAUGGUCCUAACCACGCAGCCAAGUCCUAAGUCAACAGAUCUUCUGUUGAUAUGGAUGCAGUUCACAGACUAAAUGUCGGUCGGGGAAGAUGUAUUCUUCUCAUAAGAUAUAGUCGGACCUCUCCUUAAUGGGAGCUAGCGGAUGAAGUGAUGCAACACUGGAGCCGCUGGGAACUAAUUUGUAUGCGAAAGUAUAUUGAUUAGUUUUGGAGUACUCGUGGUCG;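 note: selection with 25 µg/mL kanamycin versus none on LB agar overnight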
Details: 37 °C
metric: self-splicing fitness (ln)

In [3]: df
Out[3]:
                    seq  observedvalue
0  UUACAGCAAUAUUACGAAAU          -2.59
1  GGUAAGCAAUAUUACGUGUC         -0.504
2  UUUAAGCAAUAUUACGUGUU          -2.57
3  CCAAAGCAAUAUUACGGCAG          -0.49
4  AAUAAGCAAUAUUACGUGCG         -0.488
5  ACUGAGCAAUAUUACGAACG          -1.77
6  GCUAAGCAAUAUUACGAUCG         -0.997

* * *

Recorded measurements of self-splicing fitness (ln), one per entry
Experiment: self-splicing fitness, log relative to wild type (ln ratio); higher = more splicing; Tetrahymena group I intron in knt gene, E. coli kanamycin selection, DiMSum; sequences stand for … in CUCUCU…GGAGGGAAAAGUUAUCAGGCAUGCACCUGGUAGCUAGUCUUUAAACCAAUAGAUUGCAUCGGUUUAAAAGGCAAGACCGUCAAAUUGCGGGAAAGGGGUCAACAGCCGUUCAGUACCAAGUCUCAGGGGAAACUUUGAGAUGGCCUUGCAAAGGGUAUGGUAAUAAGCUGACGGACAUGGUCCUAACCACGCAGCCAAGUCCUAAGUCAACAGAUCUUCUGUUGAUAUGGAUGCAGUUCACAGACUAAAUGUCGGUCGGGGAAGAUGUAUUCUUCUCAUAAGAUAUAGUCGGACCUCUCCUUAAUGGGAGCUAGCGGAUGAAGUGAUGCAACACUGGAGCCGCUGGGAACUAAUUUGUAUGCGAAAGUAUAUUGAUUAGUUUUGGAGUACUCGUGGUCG
Conditions: 30 °C
metric: self-splicing fitness (ln)

>>> print(df.to_string())
                    seq  observedvalue
0  CAGAAGCAAUAUUACGUCGU          -4.88
1  UAUGAGCAAUAUUACGACCG          -1.61
2  GAAGAGCAAUAUUACGUACA          -3.17
3  UACUAGCAAUAUUACGUCCU             -1
4  UCGUAGCAAUAUUACGCAAA           -3.4
5  UGUGAGCAAUAUUACGUAAC          -3.16
6  CAUCAGCAAUAUUACGCAGU          -2.02
7  GGCAAGCAAUAUUACGAACA          -2.07
8  GGUUAGCAAUAUUACGGAGU          -1.27

* * *

Recorded measurements of self-splicing fitness (ln), one per entry
Experiment: self-splicing fitness, log relative to wild type (ln ratio); higher = more splicing; Tetrahymena group I intron in knt gene, E. coli kanamycin selection, DiMSum; sequences stand for … in CUCUCU…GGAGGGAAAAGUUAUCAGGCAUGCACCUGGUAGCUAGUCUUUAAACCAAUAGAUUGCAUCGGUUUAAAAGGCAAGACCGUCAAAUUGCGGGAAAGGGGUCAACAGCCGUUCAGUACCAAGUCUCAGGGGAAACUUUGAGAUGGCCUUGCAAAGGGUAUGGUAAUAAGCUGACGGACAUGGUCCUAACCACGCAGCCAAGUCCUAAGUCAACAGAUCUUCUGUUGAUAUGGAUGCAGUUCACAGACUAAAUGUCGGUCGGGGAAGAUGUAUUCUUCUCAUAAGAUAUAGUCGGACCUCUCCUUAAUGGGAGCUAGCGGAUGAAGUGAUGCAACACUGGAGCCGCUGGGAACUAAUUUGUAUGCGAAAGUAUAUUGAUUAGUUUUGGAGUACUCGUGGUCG
Conditions: 37 °C
metric: self-splicing fitness (ln)

>>> df
                     seq  observedvalue
 0  GACGAGCAAUAUUACGAAUG          -2.31
 1  UCGAAGCAAUAUUACGAAUA          -1.76
 2  UCCAAGCAAUAUUACGAGAA         -0.569
 3  CGCAAGCAAUAUUACGAUAC          -2.58
 4  CUGAAGCAAUAUUACGUCUU          -2.64
 5  CUGUAGCAAUAUUACGAGUU          -3.02
 6  UUGAAGCAAUAUUACGAACG          0.443
 7  AAUUAGCAAUAUUACGUUUU          -1.21
 8  ACCUAGCAAUAUUACGCGAA          -1.99
 9  AAGGAGCAAUAUUACGCUCU          -3.85
10  UGCAAGCAAUAUUACGGACC          -1.12
11  AUUUAGCAAUAUUACGACAG          0.257
12  CUCGAGCAAUAUUACGUCAA          -1.81
13  GCCUAGCAAUAUUACGGCCA          -1.52
14  CACCAGCAAUAUUACGAGGC          -2.46
15  GAUGAGCAAUAUUACGUCGC           -2.7
16  UUGCAGCAAUAUUACGAGGG         -0.707
17  GAAAAGCAAUAUUACGGGUU          -1.22
18  AGACAGCAAUAUUACGUGGU          -2.13
19  CUUGAGCAAUAUUACGGAAC          -2.61
20  UGGAAGCAAUAUUACGACCC         -0.147
21  UUAUAGCAAUAUUACGGCGU           -1.7
22  CGCGAGCAAUAUUACGGCCU          -1.65
23  UGUGAGCAAUAUUACGUAAC          -2.25
24  CGUUAGCAAUAUUACGCUCA         -0.384
25  CUGCAGCAAUAUUACGCCAU          -3.42
26  UCCGAGCAAUAUUACGCAGU          -2.31
27  UCACAGCAAUAUUACGAUUA         -0.545
28  CCCGAGCAAUAUUACGUCCA          -2.26
29  GUCUAGCAAUAUUACGUCCA         -0.455
30  GCAUAGCAAUAUUACGAACG         -0.356
31  CAUCAGCAAUAUUACGCCAG         -0.553
32  AGACAGCAAUAUUACGACCC         -0.564
33  CGUGAGCAAUAUUACGAGAA          -2.08
34  UUUCAGCAAUAUUACGUGAC          -1.73
35  CGUAAGCAAUAUUACGAAUC          -2.06
36  AAUAAGCAAUAUUACGAGAG          -2.01
37  UAGUAGCAAUAUUACGGUAA          -2.18
38  AUACAGCAAUAUUACGUAAA          -1.41
39  UAUCAGCAAUAUUACGAUCU        -0.0299
40  GCACAGCAAUAUUACGAUGU         -0.389
41  GUGGAGCAAUAUUACGAAUG          -1.77
42  CCGAAGCAAUAUUACGGAAU             -3
43  UAACAGCAAUAUUACGUGCA         -0.445
44  CAACAGCAAUAUUACGGUAC          -3.34
45  UGGCAGCAAUAUUACGAUUG          0.135
46  AUGAAGCAAUAUUACGCAUA          -0.57
47  CAGCAGCAAUAUUACGUACA          -1.97
48  GUUCAGCAAUAUUACGAUGA         -0.686
49  GACCAGCAAUAUUACGGCCU         -0.969
50  CCGGAGCAAUAUUACGGACU          -1.56
51  AAGUAGCAAUAUUACGGGUG          -1.14
52  UCAUAGCAAUAUUACGGCAU          -2.04
53  AAAAAGCAAUAUUACGCAUG           0.04
54  CAUUAGCAAUAUUACGUAGU          -1.84
55  AGUCAGCAAUAUUACGUGAU         -0.719
